Reported LD50 values for the following compounds.
Tested on: Artemia
Test: Toxicity against brine shrimp larvae
Assay type: organism-based
Settings: in vivo
Recorded Endpoint: LD50 (ppm)

>>> print(df.to_string())
                                   compound  test_system  unit_symbol  readout_relation  obs_value
0  Cc1ccc(O)cc1CC[C@@H]1[C@H](O)CC[C@]2(C)[C@@H]([C@H](C)CCCC(C)C)CC[C@@H]12      Artemia          ppm                 >        100
1  C=C(CC[C@@H](C)[C@H]1CC[C@H]2[C@H](CCc3cc(O)ccc3C)[C@H](O)CC[C@]12C)C(C)C      Artemia          ppm                 >        100
2  Cc1ccc(O)cc1CC[C@@H]1C(=O)CC[C@]2(C)[C@@H]([C@H](C)/C=C/C(C)C(C)C)CC[C@@H]12 (stereo partly specified)      Artemia          ppm                 =         37
3  Cc1ccc(O)cc1CC[C@@H]1[C@H](O)CC[C@]2(C)[C@@H]([C@H](C)CCCC(C)C)[C@@H](O)C[C@@H]12      Artemia          ppm                 =        2.3
4  Cc1ccc(O)cc1CC[C@@H]1C(=O)CC[C@]2(C)[C@@H]([C@H](C)CCCC(C)C)CC[C@@H]12      Artemia          ppm                 >        100
5  Cc1ccc(O)cc1CC[C@@H]1C(=O)CC[C@]2(C)[C@@H]([C@H](C)/C=C/CC(C)C)CC[C@@H]12      Artemia          ppm                 =        1.8
